assay: qHTS Assay for Spectroscopic Profiling in A350 Spectral Region; details: Compound autofluorescence, 340/450 nm, Alexa 350 dye-equivalents
About 6,500 (11%) of roughly 59,000 compounds were called active. Inconclusive results (about 15%) are left out. Cut-off read from the data, not from the text of the source: active = max dye-equivalent concentration above about 10 nM; inconclusive = mostly about 1.1 nM to 9.6 nM; inactive = weaker than that. Shown is part of a subset that was picked to be rich in actives.
Outcomes you can answer with include only these: t (active), f (inactive)

Solved entries:
Query: How was CC1Cc2cc(/C(O)=C3\C(=O)C(=O)N(CCN4CCOCC4)C3c3ccccc3F)ccc2O1 (stereo unspecified) classified in this test?
Response: f

Query: Per the records of this test, what outcome belongs to CCOC(=O)CCC(=O)OCC(=O)NC(C)C1CC2CCC1C2 (stereo unspecified) ?
Response: f

Query: Outcome? "C#CCNc1nc(C(C)C)nc2c1nnn2Cc1ccccc1F"
Response: f

Further cases:
Query: Test call, this compound: "O=P(c1ccc2c(c1)OCCO2)(N1CCOCC1)N1CCOCC1"
Response: f
